Listing of entries alongside the reported half-life at 200 μg ml^–1.
- protocol.text: Chemical stability in aqueous solutions, degradation followed by HPLC
- Type: physicochemical
- experimental.setup: aqueous solutions in HPLC vials, summary statement in the discussion; read-out: Half-life time (t1/2), solvent not specified / depending on the solvent
- From the text: The compounds were first dissolved in methanol (30%) or acetonitrile (50%) and then diluted to the final concentrations with water. The time-course of degradation was monitored by HPLC using an Agilent Technologies HPLC chromatograph 1200 Series equipped with a photo-diode array (PDA) detector, a binary-gradient high-pressure pump, and an automatic sampler. […] PDA detection was by absorbance in the 200–600-nm wavelength range. […]

CC1=CC(C2Cc3c(n(C)c4ccccc34)C2=O)NC1=O (racemic) :: 41.7 to 125 days

Lookup: Indicate the recorded half-life at 200 μg ml^–1 value for this compound: CC1=C[C@H](O/C=C2/C(=O)O[C@@H]3c4ccccc4C[C@H]23)NC1=O (racemic)
Found: < 0.167 days
